- method_summary: Acid dissociation constant, pKa of the compound
- Assay type: physicochemical

>  <mol>
O=c1[nH]c(Cl)c(C2=CCCC2)c(=O)[nH]1

>  <pKa>
5.8

$$$$
